Origin of values: patent EP4656654A1

Molecular target: SSTR2 (Homo sapiens, UniProt P30874)
Construct: host or cells: CHO-K1
Sequence (P30874 whole entry): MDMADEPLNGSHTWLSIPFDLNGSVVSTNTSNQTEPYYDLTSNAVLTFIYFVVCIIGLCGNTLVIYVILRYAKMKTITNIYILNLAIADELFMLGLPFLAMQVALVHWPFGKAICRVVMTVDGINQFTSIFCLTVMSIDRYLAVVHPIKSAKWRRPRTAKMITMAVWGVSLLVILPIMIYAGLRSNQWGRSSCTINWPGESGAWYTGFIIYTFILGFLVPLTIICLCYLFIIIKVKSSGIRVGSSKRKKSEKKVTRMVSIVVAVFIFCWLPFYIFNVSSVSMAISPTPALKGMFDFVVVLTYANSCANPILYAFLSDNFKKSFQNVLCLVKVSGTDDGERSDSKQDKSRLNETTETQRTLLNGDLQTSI
Assay: competitive radioligand binding assay (125I-Tyr11-Somatostatin-14) on membranes of SSTR2-overexpressing CHO-K1 cells
Conditions: parameter B, top of fitted % Effect curve
Numbered stars: 1 amine (or outer) side, 2 acyl side, 3 side chain; on linkers, the order of the positions; unused ones are H or OH. Bridge positions count the residues as written; N and C are the ends. Square brackets hold non-standard residues; d marks the D form. Peptide text beside a SMILES is read from it. * marks the point of attachment. Phe(3-CH2NH2) = O=C([C@H](Cc1cccc(CN[*:3])c1)N[*:1])[*:2]; DOTA = O=C(O)CN1CCN(CC(=O)O)CCN(CC(=O)*)CCN(CC(=O)O)CC1; X2 = CC(C)(CN)CC[C@H](N[*:1])C(=O)[*:2]; Thr(ol) = C[C@@H](O)[C@H](N)CO
parameter: Top

>  <compound>
C[C@@H](O)[C@H](NC(=O)[C@@H]1CSSC[C@H](NC(=O)[C@@H](Cc2ccccc2)NC(=O)CN2CCN(CC(=O)O)CCN(CC(=O)O)CCN(CC(=O)O)CC2)C(=O)N[C@@H](Cc2ccc(O)cc2)C(=O)N[C@H](Cc2c[nH]c3ccccc23)C(=O)N[C@@H](CCC(C)(C)CN)C(=O)N[C@@H]([C@@H](C)O)C(=O)N1)C(=O)O [Compound 6] ({DOTA}-[dF]CY[dW][X2]TCT-OH; disulfide 2-7; N-terminus and C-terminus assumed)

>  <testTarget>
SSTR2 (Homo sapiens, UniProt P30874)

>  <result>
98.3%

$$$$
>  <compound>
C[C@@H](O)[C@@H]1NC(=O)[C@H](C2CCCC(CN)C2)NC(=O)[C@@H](Cc2c[nH]c3ccccc23)NC(=O)[C@H](Cc2ccccc2)NC(=O)[C@@H](NC(=O)[C@H](N)Cc2ccccc2)CSSC[C@@H](C(=O)N[C@H](CO)[C@@H](C)O)NC1=O (single isomer, unassigned) [Compound 7p2]

>  <testTarget>
SSTR2 (Homo sapiens, UniProt P30874)

>  <result>
99.5%

$$$$
>  <compound>
C[C@@H](O)[C@@H]1NC(=O)[C@H](Cc2cccc(CN)c2)NC(=O)[C@@H](Cc2c[nH]c3ccccc23)NC(=O)[C@H](Cc2ccccc2)NC(=O)[C@@H](NC(=O)[C@H](N)Cc2ccccc2)CSSC[C@@H](C(=O)N[C@H](CO)[C@@H](C)O)NC1=O [Compound 5] (H-[dF]CF[dW][Phe(3-CH2NH2)]TC[Thr(ol)]; disulfide 2-7)

>  <testTarget>
SSTR2 (Homo sapiens, UniProt P30874)

>  <result>
100.0%

$$$$

* * *

Readings of pEC50 for the listed compounds
Biological target: SSTR2 (Homo sapiens)
Construct: host or cells: CHO-K1
Experiment: competitive radioligand binding assay (125I-Tyr11-Somatostatin-14) on membranes of SSTR2-overexpressing CHO-K1 cells
Settings: concentration x calculated from the fit at y = 50% effect; radioligand 125I-Tyr11-Somatostatin-14; SSTR2 CHO-K1 cell membrane; read-out: Absolute EC50
pEC50: −log10 of the molar value. Numbered stars: 1 amine (or outer) side, 2 acyl side, 3 side chain; on linkers, the order of the positions; unused ones are H or OH. Bridge positions count the residues as written; N and C are the ends. Square brackets hold non-standard residues; d marks the D form. Peptide text beside a SMILES is read from it. X2 = CC(C)(CN)CC[C@H](N[*:1])C(=O)[*:2]; X1 = CC(CN)CC[C@H](N[*:1])C(=O)[*:2]; Thr(ol) = C[C@@H](O)[C@H](N)CO

>  <compound>
C[C@@H](O)[C@@H]1NC(=O)[C@H](CCCCCN)NC(=O)[C@@H](Cc2c[nH]c3ccccc23)NC(=O)[C@H](Cc2ccccc2)NC(=O)[C@@H](NC(=O)[C@H](N)Cc2ccccc2)CSSC[C@@H](C(=O)N[C@H](CO)[C@@H](C)O)NC1=O

>  <pEC50>
9.13

$$$$
>  <compound>
C[C@@H](O)[C@@H]1NC(=O)[C@H](CCC(C)(C)CN)NC(=O)[C@@H](Cc2c[nH]c3ccccc23)NC(=O)[C@H](Cc2ccccc2)NC(=O)[C@@H](NC(=O)[C@H](N)Cc2ccccc2)CSSC[C@@H](C(=O)N[C@H](CO)[C@@H](C)O)NC1=O [Compound 2] (H-[dF]CF[dW][X2]TC[Thr(ol)]; disulfide 2-7)

>  <pEC50>
9.00

$$$$
>  <compound>
C[C@@H](O)[C@@H]1NC(=O)[C@H](C2CCCC(CN)C2)NC(=O)[C@@H](Cc2c[nH]c3ccccc23)NC(=O)[C@H](Cc2ccccc2)NC(=O)[C@@H](NC(=O)[C@H](N)Cc2ccccc2)CSSC[C@@H](C(=O)N[C@H](CO)[C@@H](C)O)NC1=O (single isomer, unassigned)

>  <pEC50>
10.15

$$$$
>  <compound>
CC(CN)CC[C@@H]1NC(=O)[C@@H](Cc2c[nH]c3ccccc23)NC(=O)[C@H](Cc2ccccc2)NC(=O)[C@@H](NC(=O)[C@H](N)Cc2ccccc2)CSSC[C@@H](C(=O)N[C@H](CO)[C@@H](C)O)NC(=O)[C@H]([C@@H](C)O)NC1=O (stereo partly shown) [Compound 3] (H-[dF]CF[dW][X1]TC[Thr(ol)]; disulfide 2-7)

>  <pEC50>
9.60

$$$$
